Here, each record is paired with measured Potency data.
- ASSAYED TARGET: DNA dC->dU-editing enzyme APOBEC-3F (Homo sapiens)
- EXPERIMENT: qHTS for inhibitors of Vif-A3F interactions: Cherry picks; also: nearly all actives have a fitted effect of over 70% in size; also: potency is read from the fitted curve at half-maximal effect
- TEST SETTINGS: HeLa A3F-eYFP + Vif, eYFP fluorescence, 24 h
The whole screen tested about 2,100 compounds, of which about 590 (28%) were called active. Not shown: some 42% with an inconclusive outcome. Some of the results follow.
OBSERVABLE: Potency

>>> result("O=C(C[n+]1cccc2cc(Cl)ccc21)c1ccc2ccccc2c1")
"18.4 µM (active)"
>>> result("Cc1cc(C)c(/C=C2\\C(=O)Nc3ccccc32)[nH]1")
"16.4 µM (active)"
>>> result("CCN(CC)c1nc(C=Cc2ccc(N(C)C)cc2)c2nccnc2n1")
"1.84 µM (active)"
>>> result("CN(C)c1ccc(/C=C/c2nccc3ccccc23)cc1")
"18.4 µM (active)"
>>> result("COc1ccc(NC(=O)c2sc3nc4c(cc3c2N)CN(Cc2ccccc2)CC4)c(OC)c1")
"20.6 µM (active)"
>>> result("COc1ccc(-n2c(O)c(/C=N/NS(=O)(=O)c3cc(C)ccc3C)c3ccccc3c2=O)cc1OC")
"14.6 µM (active)"
>>> result("Cc1cc2nc3c(=O)n(C4CCCCC4)c(=O)[nH]c3nc2cc1N")
"16.4 µM (active)"
>>> result("O=C1S/C(=C\\c2ccc(N3CCOCC3)o2)C(=O)N1c1ccccc1")
"3.53 µM (active)"
>>> result("CCCN1CCc2c(sc(NC(=O)c3ccc(S(=O)(=O)N(C)c4ccccc4)cc3)c2C(=O)NC)C1")
"23.1 µM (active)"
>>> result("Cc1[nH]c2ccccc2c1/C=C/c1ccc2ccccc2n1")
"7.31 µM (active)"
>>> result("CCN1CCc2nc3sc(C(=O)c4ccccc4)c(N)c3cc2C1")
"16.4 µM (active)"
>>> result("N=C1S/C(=C\\c2ccc(-c3cccc(Cl)c3)o2)C(=O)N1c1nccs1")
"18.4 µM (active)"
>>> result("Cc1cc(C)c2cc3c(N)c(C(=O)Nc4c(C)[nH]c(=O)[nH]c4=O)sc3nc2c1")
"13 µM (active)"
>>> result("CC(C)(C)c1ccc(C(=O)C[n+]2cccc3cc(Cl)ccc32)cc1")
"20.6 µM (active)"
>>> result("NC(=O)c1c(NC(=O)c2ccccc2)sc2c1CCN(Cc1ccccc1)C2")
"14 µM (active)"
>>> result("N#CC(=Cc1ccccn1)c1nc(-c2ccc(Cl)cc2)cs1")
"15.8 µM (active)"
>>> result("COc1ccccc1-c1noc(-c2ccc(NCc3ccco3)c([N+](=O)[O-])c2)n1")
"14.6 µM (active)"
>>> result("C(=C\\c1c[nH]c2ccccc12)/c1ccc2ccccc2n1")
"23.1 µM (active)"
>>> result("COC(=O)c1ccc(NC(=O)CC2Nc3cc(C)c(C)cc3NC2=O)cc1 (configuration not stated)")
"6.51 µM (active)"
>>> result("COc1ccc(C(=O)C[n+]2cccc3cc(Cl)ccc32)cc1")
"18.4 µM (active)"
>>> result("Cc1[nH]c2ccccc2c1/C=C/C(=O)c1ccccc1")
"20.6 µM (active)"
>>> result("CCOC(=O)c1ccc(/C=C2/C=C(c3ccccc3)N(c3ccc(Cl)c(C(=O)O)c3)C2=O)cc1")
"20.6 µM (active)"
>>> result("O=C1/C(=C\\c2cc([N+](=O)[O-])ccc2O)SC(=S)N1Cc1ccc(Cl)cc1")
"20.6 µM (active)"
>>> result("Cc1ccc(NC(=O)/C=C/c2ccc([N+](=O)[O-])s2)cc1")
"5.17 µM (active)"
>>> result("CC(C)(C)NC(=S)N/N=C\\c1ccc(-c2ccc([N+](=O)[O-])cc2)o1")
"14.6 µM (active)"
>>> result("CCOc1ccc(Cn2c3ccc(OC)cc3c3nc4ccccc4nc32)cc1")
"8.2 µM (active)"
>>> result("CCCN1C(=O)S/C(=C\\c2ccc(N3CCOCC3)o2)C1=O")
"2.8 µM (active)"
>>> result("C=CCN1C(=O)/C(=C2/Sc3ccc(OC)cc3N2CC)SC1=S")
"9.2 µM (active)"
>>> result("CCc1ccc(NC(=O)/C(C#N)=C/c2cc3ccc(C)cc3nc2N2CCOCC2)cc1")
"14.6 µM (active)"
>>> result("O=C(O)c1cccc(-c2ccc(/C=N/Nc3ccc([N+](=O)[O-])cc3)o2)c1")
"18.4 µM (active)"
>>> result("COc1c(-c2ccc(O)c(O)c2)oc2cc(O)cc(O)c2c1=O")
"14 µM (active)"
>>> result("COc1ccc(-n2c(O)c(/C=N/NS(=O)(=O)c3cccc([N+](=O)[O-])c3)c3ccccc3c2=O)cc1OC")
"17.7 µM (active)"
>>> result("CN(C)c1ccc(/C=C/c2cc(N(C)C)nc3ccccc23)cc1")
"9.2 µM (active)"
>>> result("Cc1cccc(-c2noc(-c3ccc(NCc4ccco4)c([N+](=O)[O-])c3)n2)c1")
"14.6 µM (active)"
>>> result("Cc1c(Cl)cccc1-c1ccc(/C=C(\\C#N)c2nc3ccccc3[nH]2)o1")
"20.6 µM (active)"
>>> result("CC(C)n1c(O)c(N=Nc2ccc(Cl)nn2)c2ccccc21")
"20.6 µM (active)"
>>> result("CCN(CC)c1ccc(/C=C/c2cc(-c3ccccc3)c3ccccc3n2)cc1")
"5.59 µM (active)"
>>> result("Fc1ccc2nc3[nH]c4ccccc4c3nc2c1")
"0.994 µM (active)"
>>> result("Cc1cc([N+](=O)[O-])ccc1-c1ccc(/C=N/NC(=O)c2ccc(Br)o2)o1")
"18.4 µM (active)"
>>> result("COc1ccc(-n2c(O)c(/C=N/NS(=O)(=O)c3ccc(C)c([N+](=O)[O-])c3)c3ccccc3c2=O)cc1OC")
"14.6 µM (active)"
>>> result("CC(C)OC(=O)c1cc(C(=O)c2cc(F)ccc2O)coc1=N")
"23.1 µM (active)"
>>> result("CCN(Cc1ccccc1)c1ccc(/C=C/c2nccc3ccccc23)cc1")
"20.6 µM (active)"

====

Here, each record is paired with measured max response data.
- ASSAYED TARGET: DNA dC->dU-editing enzyme APOBEC-3F (Homo sapiens)
- EXPERIMENT: qHTS for inhibitors of Vif-A3F interactions: Cherry picks; also: nearly all actives have a fitted effect of over 70% in size;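 as to max response: % of control where 0% means no effect; active compounds raise eYFP fluorescence by blocking Vif-driven A3F loss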
- TEST SETTINGS: HeLa A3F-eYFP + Vif, eYFP fluorescence, 24 h
The whole screen tested about 2,100 compounds, of which about 590 (28%) were called active. Not shown: some 42% with an inconclusive outcome. This is one part of the list.
OBSERVABLE: max response

>>> result("CNCC(O)Cn1c2c(c3ccccc31)CCCC2 (stereo unspecified)")
"1.63% (inactive)"
>>> result("CCC(C)Sc1cc(-c2nc3ccccn3c2NC2CCCCC2)ccc1OC (stereo unspecified)")
"-11.6% (inactive)"
>>> result("Cc1cc(N/N=C/c2ccc(O)cc2O)nc(-n2nc(C)cc2C)n1")
"2.91% (inactive)"
>>> result("CCOC(=O)c1cnc(-n2nc(C)cc2C)nc1NNc1cc(C)nc(-c2ccccc2)n1")
"0.647% (inactive)"
>>> result("C#CCSc1nc(-c2cccs2)ccc1C#N")
"-28.5% (inactive)"
>>> result("CCC(=Nc1ccccc1O)C1=C(O)CC(c2ccccc2)CC1=O (stereo unspecified)")
"-8% (inactive)"
>>> result("O=C(Nc1cc(Cl)cc2c1-c1ccc(Cl)cc1C2O)C(Cl)Cl (stereo unspecified)")
"-15.3% (inactive)"
>>> result("CCN1C/C(=C/c2cccc([N+](=O)[O-])c2)C(=O)/C(=C/c2cccc([N+](=O)[O-])c2)C1")
"-17.2% (inactive)"
>>> result("O=[N+]([O-])c1ccccc1C=NNC(=S)NN=Cc1ccccc1[N+](=O)[O-]")
"-27.9% (inactive)"
>>> result("O=C(CC1CC2CCC1C2)Nc1nc(-c2ccccn2)cs1 (stereo unspecified)")
"0.305% (inactive)"
>>> result("C/C(=N\\NC(N)=S)C12CC3CC(CC(C3)C1)C2")
"3.49% (inactive)"

====

- ASSAYED TARGET: DNA dC->dU-editing enzyme APOBEC-3F (Homo sapiens)
- EXPERIMENT: qHTS for inhibitors of Vif-A3F interactions: Cherry picks; also: nearly all actives have a fitted effect of over 70% in size;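 as to max response: % of control where 0% means no effect; active compounds raise eYFP fluorescence by blocking Vif-driven A3F loss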
- TEST SETTINGS: HeLa A3F-eYFP + Vif (tagged APOBEC3F with the HIV-1 protein that degrades it), eYFP fluorescence, 24 h
Out of some 2,100 compounds screened, about 590 (28%) were called active. About 42% were inconclusive and are not listed. The list shows a part of the results.
Here, each record is paired with measured max response data.
OBSERVABLE: max response (%)

>>> result_number("O=C(N/N=C/c1ccc2c(c1)OCO2)c1ccc2c(c1)OCCO2")
-24.9
>>> result_number("CC1Sc2ccc(C(=O)NCc3ccccn3)cc2NC1=O (centres undefined)")
-4.69
>>> result_number("Cc1ccc(-c2nc(SCCOc3ccccc3C)n3[nH]c(=O)cc3n2)cc1")
1.28
>>> result_number("O=C(CSc1nc(-c2ccco2)cc(C(F)(F)F)n1)Nc1cccnc1")
-24.4
>>> result_number("COc1ccc(N/C=C/c2nc(SC)nnc2C)cc1")
-11.1
>>> result_number("Cc1ccc(-n2c(O)c(/C=C3/C(c4ccccc4)=Nc4ccccc43)c(=O)[nH]c2=O)cc1")
-12.3
>>> result_number("C/C(=N\\Nc1nc(C)cc(-c2ccccc2)n1)c1ccc(F)cc1")
-6.16
>>> result_number("c1ccc2[nH]c(NN=C3CCCCCC3)nc2c1")
2.02
>>> result_number("COc1cnc(-c2ccccn2)nc1Oc1ccc(F)cc1F")
2.31
>>> result_number("CC(=O)c1cccc(-c2ccnc3c2CC(C(=O)Nc2ccc(Cl)cc2)O3)c1 (centres undefined)")
-28.2
>>> result_number("CN(NC(=O)c1ccccc1)c1nc2ccccc2nc1C(F)(F)F")
-29.3
>>> result_number("Cc1ccc(NC2=C(Cl)C(=O)N(C3CCCCC3)C2=O)cc1")
-3.54
>>> result_number("Cc1ccc(Cc2c(C3CCCCC3)nc3ccc(C)cn23)cc1")
-5.74
>>> result_number("CCN(CC)c1ccc(NC(=O)CSc2nc(C3CC3)nc3ccccc23)cc1C")
-22.1
>>> result_number("Cc1ccc2c(c1C)NC(=O)CC(c1ccccc1O)=N2")
0.01
>>> result_number("Cc1cc(/C=N/NC(=O)c2cc3ccccc3o2)c(C)n1C")
-15.8
>>> result_number("O=C1[C@@H]2[C@@H](CN3CN(c4ccccc4)N=C(c4ccccc4)[C@@]23c2ccccc2)C(=O)N1c1ccccc1")
-0.723
>>> result_number("Cc1cc(C)nc(-n2nc(C)cc2NC(=O)c2ccc(F)cc2F)n1")
-0.0521
>>> result_number("O=C(O)c1ccc(N/N=C/C(Br)=C/c2ccccc2)cc1")
-18.2
>>> result_number("Cc1ccc(S(=O)(=O)N2CCCCC2CCNC(=O)C(=O)NCc2ccco2)cc1 (centres undefined)")
-26.1
>>> result_number("Cc1cc(C)c(C(=O)N(CCN(C)C)CC2CCCN(Cc3ccccc3F)C2)o1 (centres undefined)")
2.52
>>> result_number("COc1ccc(C2=CC(c3ccc(N(C)C)cc3)n3nnnc3N2)cc1 (centres undefined)")
-6.88
>>> result_number("CCc1ccc2c(c1)NC(=O)C2(C)Cc1ccccc1Cl (centres undefined)")
-19.4
>>> result_number("Cc1cc(C)c(S(=O)(=O)N2CCCCC2CCNC(=O)C(=O)NCc2ccco2)c(C)c1 (centres undefined)")
-24.9
>>> result_number("Cc1ccc(N2C(=O)[C@@H]3[C@H](C2=O)[C@H]2C=C(C(=O)c4ccccc4)C=CN2[C@@H]3C(=O)c2ccc(Cl)cc2)cc1")
-5.61
>>> result_number("CCOc1cc(Br)cc(/C=C2\\SC(=Nc3ccccc3)NC2=O)c1O")
-27.7
>>> result_number("Cc1ccc(NC(=O)c2ccc([N+](=O)[O-])s2)cc1S(=O)(=O)N1CCOCC1")
-11.7
>>> result_number("Cc1cnc(NC(=O)CC(C)c2ccccc2)s1 (centres undefined)")
-26.1
>>> result_number("Cc1ccc(NC(=O)Cc2ccc(-n3cccc3)cc2)c(C)c1")
-1.25
>>> result_number("COCCNC(=S)N/N=C(\\C)c1ccc(OC(F)F)cc1")
0.658
>>> result_number("O=S(=O)(Nc1cc(Sc2ncn[nH]2)c(O)c2ccccc12)c1ccccc1")
-29.8
>>> result_number("COc1ccc(Nc2nc(C)nc3sc4c(c23)CCC4)cc1O")
-29.4
>>> result_number("CC(=O)c1cccc(NC(=S)N2c3ccccc3CC2C)c1 (centres undefined)")
9.61
>>> result_number("COC(=O)[C@@]1(Cc2ccccc2)[C@@H]2C(=CC(=O)[C@H]2CC(=O)C(=O)N(C)C)CN1C(=O)c1ccccc1")
-26.2
>>> result_number("C=CCN=c1scc(-c2ccc(F)cc2)n1/N=C/c1ccccn1")
5.22
>>> result_number("Cc1ccc(S(=O)(=O)Nc2cc(Cl)c(O)c3ncccc23)cc1")
-26.9
>>> result_number("CC(C)c1ccc(C(=O)NCCCNC(=O)c2cnccn2)cc1")
1.42
>>> result_number("O=C(Nc1nc(-c2ccccn2)cs1)C1CCCC1")
-4.77
>>> result_number("CC12CC3CC(C)(C1)CC(C(=O)NC(=S)N1CCOCC1)(C3)C2")
4.69
>>> result_number("COC(=O)c1sccc1NC(=S)Nc1cc(C)cc(C)c1")
-0.135
>>> result_number("Cn1cc(/C=C2\\SC(=O)N(c3ccccc3)C2=O)c2ccccc21")
-28.8
>>> result_number("NC(=O)c1ccc(NC(=O)C#Cc2ccccc2)cc1")
-20.2
>>> result_number("CCC(=C/c1sc2ccc3ccccc3c2[n+]1C)/C=C1\\Sc2ccc3ccccc3c2N1C")
-0.328
>>> result_number("Cn1ccnc1Sc1nc2ccccc2nc1NS(=O)(=O)c1ccccc1")
-9.48
